Target: DNMT1 (human, UniProt P26358 1-1616)
Sequence (P26358 whole entry): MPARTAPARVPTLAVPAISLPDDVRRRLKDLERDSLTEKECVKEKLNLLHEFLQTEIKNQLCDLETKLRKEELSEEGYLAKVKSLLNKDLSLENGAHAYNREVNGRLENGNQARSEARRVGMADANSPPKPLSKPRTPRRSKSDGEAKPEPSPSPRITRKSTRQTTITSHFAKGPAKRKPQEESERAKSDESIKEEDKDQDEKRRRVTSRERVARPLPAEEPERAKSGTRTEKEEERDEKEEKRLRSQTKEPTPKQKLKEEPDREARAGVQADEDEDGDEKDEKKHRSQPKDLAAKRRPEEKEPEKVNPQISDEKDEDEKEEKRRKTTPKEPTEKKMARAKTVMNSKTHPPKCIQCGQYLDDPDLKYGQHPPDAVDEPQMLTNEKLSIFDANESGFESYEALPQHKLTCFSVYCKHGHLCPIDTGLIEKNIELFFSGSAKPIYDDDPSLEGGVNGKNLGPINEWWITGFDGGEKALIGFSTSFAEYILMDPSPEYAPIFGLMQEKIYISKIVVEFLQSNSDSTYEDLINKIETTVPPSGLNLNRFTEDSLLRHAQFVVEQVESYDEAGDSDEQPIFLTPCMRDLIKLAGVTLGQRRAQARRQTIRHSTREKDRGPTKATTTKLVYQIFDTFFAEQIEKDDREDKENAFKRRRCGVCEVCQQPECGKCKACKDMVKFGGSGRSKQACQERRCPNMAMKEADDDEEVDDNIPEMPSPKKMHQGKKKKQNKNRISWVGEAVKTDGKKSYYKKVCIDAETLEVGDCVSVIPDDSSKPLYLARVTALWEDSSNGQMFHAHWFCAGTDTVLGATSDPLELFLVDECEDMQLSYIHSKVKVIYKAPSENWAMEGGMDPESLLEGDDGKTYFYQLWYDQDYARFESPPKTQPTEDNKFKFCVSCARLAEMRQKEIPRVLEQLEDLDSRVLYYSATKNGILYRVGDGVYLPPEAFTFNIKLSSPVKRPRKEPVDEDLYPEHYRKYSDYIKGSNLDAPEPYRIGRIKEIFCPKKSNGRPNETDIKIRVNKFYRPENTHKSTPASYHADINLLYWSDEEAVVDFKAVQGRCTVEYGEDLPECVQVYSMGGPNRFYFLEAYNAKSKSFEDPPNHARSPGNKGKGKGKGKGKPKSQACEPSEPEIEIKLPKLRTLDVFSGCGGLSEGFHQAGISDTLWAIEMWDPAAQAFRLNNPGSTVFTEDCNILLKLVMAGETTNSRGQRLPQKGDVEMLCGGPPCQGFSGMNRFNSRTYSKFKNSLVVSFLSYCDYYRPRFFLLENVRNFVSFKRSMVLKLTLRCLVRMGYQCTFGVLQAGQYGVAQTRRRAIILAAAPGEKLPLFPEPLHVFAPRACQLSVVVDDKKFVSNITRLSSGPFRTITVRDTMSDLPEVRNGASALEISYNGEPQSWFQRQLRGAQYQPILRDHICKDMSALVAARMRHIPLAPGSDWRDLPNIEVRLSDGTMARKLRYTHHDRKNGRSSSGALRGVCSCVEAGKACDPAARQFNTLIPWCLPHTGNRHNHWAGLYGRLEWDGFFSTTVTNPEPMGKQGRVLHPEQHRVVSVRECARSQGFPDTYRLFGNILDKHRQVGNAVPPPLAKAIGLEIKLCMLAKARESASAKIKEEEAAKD
Experiment: EMSA; 100 mM KCl; 50 mM Tris-HCl pH 7.5, 100 mM KCl (or LiCl), 2.5 mM MgCl2, 0.1 mM ZnCl2, 2 mM BME, 0.05% NP40, 5% glycerol, 0.1 mg/mL BSA, 0.1 mg/mL yeast tRNA; 30 C 1 h; 1% agarose gel in 1x TBE at 4 C
Conditions: protein: recombinant; tags: MBP tag cleaved with PreScission protease; label: 5' 32P; pUG-fold, possibly two
endpointName: Kd (nM)
Numeric only. Scale: nM

Reported Kd, binder (GU)30 (structured_RNA) RNA: GUGUGUGUGUGUGUGUGUGUGUGUGUGUGUGUGUGUGUGUGUGUGUGUGUGUGUGUGUGU : ____
13
